Ref: patent US8178506B2

- Test system: follistatin
- protocol_notes: Follistatin mRNA expression in HepG2 cells
- Assay type: cell-based, human
- test_context: Experiment 1, basal (no insulin); HepG2; 100 nM oligomeric compound
- Procedure: Approximately 28 hours after transfection, the cells are subjected to serum starvation for a period of 12 to 16 hours, using serum-free growth medium. […] Following insulin treatment (forty-eight hours after transfection), total RNA is harvested from all samples, and the amount of total RNA from each sample is determined using a Ribogreen assay (Invitrogen Corporation, Carlsbad, Calif.). […]
In the oligonucleotide strings, read from the 5' end, every base follows the letter of its sugar. An asterisk marks phosphorothioate; unmarked linkages are phosphodiester. Other units and linkages are bracketed, terminal groups are in braces. A string of capitals states the bases alone. e = 2'-O-(2-methoxyethyl) (MOE); [5mC] = 5-methylcytosine
Quick reference: Follistatin (% UTC) of the listed items.
Form entry: value (% UTC) — number only.

The substance listed as 327913 (antisense eA*eA*e[5mC]*e[5mC]*eG*eA*eT*eT*eT*e[5mC]*eA*eA*eA*eT*eG*eG*eT*eG*e[5mC]*eT*eA*eG) [compound 327913] shows Follistatin (% UTC) equal to 115

Record summary for 327890 (antisense eA*eG*e[5mC]*eA*e[5mC]*eA*eA*eA*e[5mC]*eT*eA*e[5mC]*eT*eA*e[5mC]*e[5mC]*eT*e[5mC]*eA) [compound 327890] : reported Follistatin (% UTC) = 78

The substance 327934 (antisense eG*eG*eT*eA*e[5mC]*eA*eA*eT*e[5mC]*eA*eA*e[5mC]*eG*eG*eT*e[5mC]*eG*eA*eT*eG*eG*eT) [compound 327934] showed Follistatin (% UTC) equal to 140

Lab note: 327919 (antisense eG*eA*eA*eA*e[5mC]*e[5mC]*e[5mC]*eA*eG*e[5mC]*eA*eG*eA*e[5mC]*eA*eA*eT*eG*eT*eA*eG*e[5mC]*eT) [compound 327919] gave Follistatin (% UTC) of 74

Looking up 327925 (antisense eT*eA*eG*e[5mC]*eT*eG*eG*eT*eT*eG*eA*eA*eG*eG*eG*eG*eA*e[5mC]*e[5mC]*eA*eA) [compound 327925] , I found its Follistatin (% UTC) recorded as 110

The substance identified as 327880 (antisense eA*e[5mC]*eA*eA*eA*eT*eT*e[5mC]*eG*eG*eT*eT*e[5mC]*eT*eA*e[5mC]*eA*eG*eG*eG*eT*eA) [compound 327880] registered its Follistatin (% UTC) at 107

Consider 338664 (antisense e[5mC]*eA*eG*eA*e[5mC]*eT*e[5mC]*e[5mC]*e[5mC]*eA*eA*e[5mC]*eT*eG*eA*e[5mC]*e[5mC]*eA*eG*eA) [compound 338664] . Its measured Follistatin (% UTC) is 93

Follistatin (% UTC) measured on 327933 (antisense eA*eA*eG*eG*eG*eA*eT*eT*e[5mC]*e[5mC]*eT*eG*eG*eG*eA*eA*eA*eA*e[5mC]*eT*eG*eG*eA*e[5mC]) [compound 327933] = 112

The substance listed as 327903 (antisense eA*eA*e[5mC]*eT*eA*eT*eA*e[5mC]*eA*eA*e[5mC]*e[5mC]*eT*eA*e[5mC]*eT*eA*e[5mC]*e[5mC]*eT*e[5mC]*eA) [compound 327903] shows Follistatin (% UTC) equal to 60

The reported value for 327878 (antisense e[5mC]*eT*eA*eG*eT*eG*eG*eT*e[5mC]*e[5mC]*eT*eA*eA*eA*e[5mC]*eA*eT*eT*eT*e[5mC]*eA*e[5mC]) [compound 327878] in terms of Follistatin (% UTC) is 124

Item: 327889 (antisense eG*eT*eG*eG*eT*eA*eA*eT*e[5mC]*e[5mC]*e[5mC]*eT*eG*eG*e[5mC]*eA*eA*eT*eG*eT*eG*eA*eT) [compound 327889] | Follistatin (% UTC): 56
